Data credit: patent US10976310B2

biological target: 3-methyl-2 oxobutanoate hydroxymethyl-transferase 1 (KPHMT1) (Arabidopsis thaliana, UniProt O82357); experiment: Microscale thermophoresis (MST) assay, Panthotenate-KPHMT1 interaction; conditions: mean±SD, n=3
Sequence (O82357 49-347): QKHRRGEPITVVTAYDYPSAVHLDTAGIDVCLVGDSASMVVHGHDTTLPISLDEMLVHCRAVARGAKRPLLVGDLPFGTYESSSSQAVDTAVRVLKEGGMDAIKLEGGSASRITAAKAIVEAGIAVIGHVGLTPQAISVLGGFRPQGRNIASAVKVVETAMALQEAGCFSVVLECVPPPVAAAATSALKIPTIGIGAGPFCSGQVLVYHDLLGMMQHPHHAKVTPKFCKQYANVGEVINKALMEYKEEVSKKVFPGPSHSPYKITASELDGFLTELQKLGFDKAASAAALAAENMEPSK
QUANTITY KIND: pKd
Lab note — pKd values are minus log10 of concentrations in M.

// query Please report the recorded pKd for CC(C)(CO)[C@@H](O)C(=O)NCCC(=O)O [Panthotenate, Pantothenic acid] .
// result 3.43

----------
Target: UniProtKB Q9ZUG4
Sequence (Q9ZUG4 1-374): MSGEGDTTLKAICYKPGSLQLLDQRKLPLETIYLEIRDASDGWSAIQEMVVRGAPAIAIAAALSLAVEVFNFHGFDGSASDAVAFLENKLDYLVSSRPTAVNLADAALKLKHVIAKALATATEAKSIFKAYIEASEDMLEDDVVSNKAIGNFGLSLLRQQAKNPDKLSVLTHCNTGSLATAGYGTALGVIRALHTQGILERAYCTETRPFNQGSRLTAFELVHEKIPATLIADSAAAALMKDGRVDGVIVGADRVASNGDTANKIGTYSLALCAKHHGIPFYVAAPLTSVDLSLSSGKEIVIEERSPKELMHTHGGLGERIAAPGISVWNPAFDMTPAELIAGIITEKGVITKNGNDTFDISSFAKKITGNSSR
Experiment: Microscale thermophoresis (MST) assay, MTA-MTR-1-P interaction
Conditions: mean±SD, n=3
QUANTITY KIND: pKd
Lab note — pKd values are minus log10 of concentrations in M.

// query Please report the recorded pKd for "CSC[C@H]1O[C@@H](n2cnc3c(N)ncnc32)[C@H](O)[C@@H]1O" .
// result 5.57

----------
Molecular target: FBA6 (Arabidopsis thaliana)
Construct: made in house; host or cells: E. coli
Sequence (Q9SJQ9 1-358): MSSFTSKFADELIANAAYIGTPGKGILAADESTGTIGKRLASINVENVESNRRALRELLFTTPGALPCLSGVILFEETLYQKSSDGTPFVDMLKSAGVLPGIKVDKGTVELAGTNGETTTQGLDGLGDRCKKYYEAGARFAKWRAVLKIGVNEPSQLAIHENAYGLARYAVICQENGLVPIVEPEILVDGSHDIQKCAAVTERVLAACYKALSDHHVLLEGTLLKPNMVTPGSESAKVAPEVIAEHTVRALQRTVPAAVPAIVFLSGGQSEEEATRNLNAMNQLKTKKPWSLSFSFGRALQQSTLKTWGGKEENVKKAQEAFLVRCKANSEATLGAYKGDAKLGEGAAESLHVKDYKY
Test: Microscale thermophoresis (MST) binding to FBA6 expressed and purified from E. coli
Peptide text beside a SMILES is read from it.
QUANTITY KIND: Kd

// query Please report the recorded Kd for NCC(=O)N1CCC[C@H]1C(=O)O [Gly-Pro, L-Gly-L-Pro] (H-Gly-Pro-OH) .
// result ~200 nM
